pIC50: −log10 of the molar value.
The reader will find pIC50 measurements below, all made with human MC4R (Homo sapiens).
Sequence (P32245 whole entry): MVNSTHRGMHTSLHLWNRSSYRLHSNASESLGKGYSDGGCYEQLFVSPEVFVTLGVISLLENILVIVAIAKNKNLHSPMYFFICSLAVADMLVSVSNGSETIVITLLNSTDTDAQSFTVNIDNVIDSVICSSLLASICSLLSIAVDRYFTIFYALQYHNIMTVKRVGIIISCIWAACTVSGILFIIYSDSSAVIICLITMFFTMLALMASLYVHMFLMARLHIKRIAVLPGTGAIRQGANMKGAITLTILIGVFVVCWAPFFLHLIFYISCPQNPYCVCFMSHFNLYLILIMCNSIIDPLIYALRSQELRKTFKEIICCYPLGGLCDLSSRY

See these solved cases before continuing.
CN1C(=O)[C@H]2N[C@@H](c3ccc(cc3)C(=O)NCCCC[C@@H](C(N)=O)NC(=O)[C@H](Cc3ccccc3)NC(=O)[C@H](Cc3ccccc3)NC(=O)[C@H](CCCNC(=N)N)NC(=O)[C@@H]1Cc1ccccc1)[C@H]1C(=O)N(c3ccccc3)C(=O)[C@H]12 [N3-major*, [II-FRFFK ]]; < 4.00
CN1C(=O)[C@@H]2[C@H](C1=O)[C@H]1N[C@@H]2C(=O)N(C)[C@@H](Cc2ccccc2)C(=O)N[C@@H](CCCNC(=N)N)C(=O)N[C@H](Cc2ccccc2)C(=O)N[C@H](Cc2ccccc2)C(=O)N[C@@H](CC(N)=O)C(=O)N[C@H](C(=O)NCC(N)=O)CCCCNC(=O)c2ccc1cc2 [K2-minor, [I-FRffNK ]G]; < 5.00

Attention now shifts to the item below.
For C[C@@H]1NC(=O)[C@H](CC(N)=O)NC(=O)[C@H](Cc2ccccc2)NC(=O)[C@H](Cc2ccccc2)NC(=O)[C@H](CCCNC(=N)N)NC(=O)[C@H](Cc2ccccc2)N(C)C(=O)[C@@H]2N[C@H](c3ccc(cc3)C(=O)NCCCC[C@@H](C(=O)N[C@@H](Cc3ccc(O)cc3)C(N)=O)NC1=O)[C@@H]1C(=O)N(C)C(=O)[C@@H]12 [F1-minor*, [ I-FRFFNAK ]Y] the molecule record lists pIC50 as 4.24
